# Study Target: T1, human CD63 (human, UniProt P08962 2-238)
# T1 construct: stably transfected in NIH3T3/hCD63; The cell line is named under assay; also called hCD63
# T1 sequence: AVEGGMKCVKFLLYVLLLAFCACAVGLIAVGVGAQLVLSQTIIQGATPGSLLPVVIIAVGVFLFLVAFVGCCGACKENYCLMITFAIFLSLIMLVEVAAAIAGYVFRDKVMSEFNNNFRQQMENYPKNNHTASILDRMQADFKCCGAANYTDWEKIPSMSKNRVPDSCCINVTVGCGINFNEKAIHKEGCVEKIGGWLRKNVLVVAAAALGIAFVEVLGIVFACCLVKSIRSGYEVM
# Test: ECL, LNCAP cells
Please provide measured binding ratio at 3.7 nM vs NIH3T3 for the entries that follow.
Report as a plain number; the unit fold is understood.

Query: Which value of binding ratio at 3.7 nM vs NIH3T3 has been reported for H1M12362N (antibody, V domains shown) VH: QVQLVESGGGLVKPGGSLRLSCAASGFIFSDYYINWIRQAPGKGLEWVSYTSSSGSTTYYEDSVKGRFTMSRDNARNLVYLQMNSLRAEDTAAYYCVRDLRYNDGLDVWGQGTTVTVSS VL: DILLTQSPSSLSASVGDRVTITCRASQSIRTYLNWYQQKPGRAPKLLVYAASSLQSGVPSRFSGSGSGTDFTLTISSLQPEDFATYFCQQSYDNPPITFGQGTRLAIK in the records?
Response: 16

Query: Given the entry H2M13022N (antibody, V domains shown, also called H2bM13022N) VH: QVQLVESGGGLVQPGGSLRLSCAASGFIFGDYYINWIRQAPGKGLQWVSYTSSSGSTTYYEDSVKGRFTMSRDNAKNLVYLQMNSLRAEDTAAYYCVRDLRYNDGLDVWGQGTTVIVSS VL: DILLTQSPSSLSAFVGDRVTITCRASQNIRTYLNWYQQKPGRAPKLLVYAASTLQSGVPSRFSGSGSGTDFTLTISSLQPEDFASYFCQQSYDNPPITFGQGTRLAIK , report its measured binding ratio at 3.7 nM vs NIH3T3.
Response: 8

Query: Reported binding ratio at 3.7 nM vs NIH3T3 for H1M12451N (antibody, V domains shown) VH: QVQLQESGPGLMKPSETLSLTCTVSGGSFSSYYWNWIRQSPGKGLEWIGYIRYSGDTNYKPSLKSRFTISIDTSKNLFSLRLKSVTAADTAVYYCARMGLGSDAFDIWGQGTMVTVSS VL: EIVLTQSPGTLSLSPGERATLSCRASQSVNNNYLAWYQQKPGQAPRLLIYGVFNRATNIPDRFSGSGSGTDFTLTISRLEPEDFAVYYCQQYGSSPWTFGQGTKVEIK : what is it?
Response: 18

Query: Would you kindly share the measured binding ratio at 3.7 nM vs NIH3T3 for H2M12395N (antibody, V domains shown, also called H2aM12395N) VH: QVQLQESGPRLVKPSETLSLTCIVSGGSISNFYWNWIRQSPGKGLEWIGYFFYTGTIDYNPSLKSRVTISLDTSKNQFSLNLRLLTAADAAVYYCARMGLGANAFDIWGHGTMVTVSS VL: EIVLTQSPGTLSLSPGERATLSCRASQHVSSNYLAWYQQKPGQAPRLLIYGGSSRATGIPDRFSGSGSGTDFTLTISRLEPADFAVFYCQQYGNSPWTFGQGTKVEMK ?
Response: 7

Query: Any idea what its binding ratio at 3.7 nM vs NIH3T3 is? The binder is H2M12454N (antibody, V domains shown, also called H2bM12454N) VH: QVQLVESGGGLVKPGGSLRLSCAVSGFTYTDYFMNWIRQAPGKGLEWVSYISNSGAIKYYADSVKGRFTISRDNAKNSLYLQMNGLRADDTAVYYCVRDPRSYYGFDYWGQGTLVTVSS VL: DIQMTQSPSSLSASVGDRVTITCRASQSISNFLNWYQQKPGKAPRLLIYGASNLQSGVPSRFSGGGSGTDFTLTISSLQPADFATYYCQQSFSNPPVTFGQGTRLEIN
Response: 14

Query: Which measured binding ratio at 3.7 nM vs NIH3T3 value corresponds to H1M12386N (antibody, V domains shown) VH: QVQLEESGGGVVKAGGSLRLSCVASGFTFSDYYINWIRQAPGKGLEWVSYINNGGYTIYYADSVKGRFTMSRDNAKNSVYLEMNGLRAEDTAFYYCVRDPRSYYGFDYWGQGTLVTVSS VL: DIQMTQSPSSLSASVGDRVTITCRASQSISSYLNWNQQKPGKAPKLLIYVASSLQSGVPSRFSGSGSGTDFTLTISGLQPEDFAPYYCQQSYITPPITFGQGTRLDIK ?
Response: 16

Query: Find the recorded binding ratio at 3.7 nM vs NIH3T3 belonging to H1M12388N (antibody, V domains shown) VH: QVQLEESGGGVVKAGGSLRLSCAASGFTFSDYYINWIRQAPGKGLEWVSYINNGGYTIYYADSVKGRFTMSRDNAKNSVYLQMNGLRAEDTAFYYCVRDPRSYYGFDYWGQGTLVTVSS VL: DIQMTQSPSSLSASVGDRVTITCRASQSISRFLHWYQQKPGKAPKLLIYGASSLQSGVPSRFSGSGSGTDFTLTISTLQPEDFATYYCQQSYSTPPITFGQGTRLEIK and report it.
Response: 31

Query: Can you look up the measured binding ratio at 3.7 nM vs NIH3T3 of H2M12450N (antibody, V domains shown, also called H2aM12450N; mAb12450) VH: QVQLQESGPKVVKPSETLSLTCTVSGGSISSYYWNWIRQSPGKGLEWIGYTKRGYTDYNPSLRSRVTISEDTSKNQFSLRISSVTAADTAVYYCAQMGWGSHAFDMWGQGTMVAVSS VL: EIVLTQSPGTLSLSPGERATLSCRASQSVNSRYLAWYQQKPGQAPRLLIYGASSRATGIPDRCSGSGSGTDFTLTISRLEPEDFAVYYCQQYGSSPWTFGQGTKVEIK for me?
Response: 20

Query: Name the recorded binding ratio at 3.7 nM vs NIH3T3 for H2M12387N (antibody, V domains shown, also called H2aM12387N) VH: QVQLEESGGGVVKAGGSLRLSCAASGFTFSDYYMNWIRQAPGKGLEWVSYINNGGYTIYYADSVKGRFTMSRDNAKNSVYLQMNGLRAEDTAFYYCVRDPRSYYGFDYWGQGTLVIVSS VL: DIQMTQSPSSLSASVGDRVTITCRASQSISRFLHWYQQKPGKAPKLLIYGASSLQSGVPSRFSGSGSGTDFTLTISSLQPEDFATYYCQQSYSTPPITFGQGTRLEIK .
Response: 18
